Provenance of the data: paper PMC9090415

- TEST_TARGET: P. falciparum apicoplast DNA polymerase (Pf-apPOL) (Plasmodium falciparum)
- Sequence (Q8ILY1 entry or part of it): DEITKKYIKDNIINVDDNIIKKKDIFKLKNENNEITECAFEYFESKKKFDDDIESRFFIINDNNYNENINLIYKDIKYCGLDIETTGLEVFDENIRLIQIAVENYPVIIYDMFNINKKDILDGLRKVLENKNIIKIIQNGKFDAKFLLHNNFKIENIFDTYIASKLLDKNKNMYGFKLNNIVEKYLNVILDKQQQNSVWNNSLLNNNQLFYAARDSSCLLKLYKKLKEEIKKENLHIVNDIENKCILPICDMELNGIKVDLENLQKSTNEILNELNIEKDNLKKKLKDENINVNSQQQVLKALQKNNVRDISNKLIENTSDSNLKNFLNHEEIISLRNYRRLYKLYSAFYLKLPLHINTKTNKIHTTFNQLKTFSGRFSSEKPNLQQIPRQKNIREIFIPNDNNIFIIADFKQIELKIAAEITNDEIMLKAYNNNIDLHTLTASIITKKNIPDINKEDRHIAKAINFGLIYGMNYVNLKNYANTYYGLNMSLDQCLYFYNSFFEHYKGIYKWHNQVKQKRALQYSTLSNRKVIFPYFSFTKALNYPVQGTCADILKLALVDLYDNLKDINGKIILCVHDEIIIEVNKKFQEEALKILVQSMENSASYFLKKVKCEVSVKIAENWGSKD
- ASSAY: Fluorescence-based high-throughput DNA polymerase assay (molecular beacon), primary screen and dose-response
- Type: biochemical
- CONDITION_DETAILS: DRC-2; 5'; concentration 10
Each entry below carries its recorded % inhibition Apo pol 5'.
Write down the numeric answer in % and omit the unit.

MOLECULE	TEST_TARGET	% inhibition Apo pol 5' [%]
CCCCOC(=O)CCCCCN1C(=O)C(=Cc2ccc(OC)cc2)SC1=S [Molecule 75]	P. falciparum apicoplast DNA polymerase (Pf-apPOL) (Plasmodium falciparum)	20
Cc1nn(CC(=O)NCCSCc2ccco2)c(C)c1Br [KU0267182]	P. falciparum apicoplast DNA polymerase (Pf-apPOL) (Plasmodium falciparum)	16
N#CC(=NNc1cc(C(F)(F)F)cc(C(F)(F)F)c1)C(=O)c1ccco1 [KU0264276]	P. falciparum apicoplast DNA polymerase (Pf-apPOL) (Plasmodium falciparum)	27

Okay, next one:
Task item: Please look at this molecule and report its % inhibition Apo pol 5': O=C(NCC1CCN(C2CCCC2)CC1)C(=O)NC1CCCC1 [KU0199596]
Reply: 24
